System: ACHN renal
Test: NCI tumour cell line growth inhibition, 48 h; in the data active means GI50 below about 0.43 µM; inactive means the rest
Possible outcomes: active, inactive

Molecule	Label class
CC(=O)Oc1ccc(Nc2c3ccccc3nc3ccccc23)cc1	active
CC(=O)OCC1OC([S-])C(OC(C)=O)C(OC(C)=O)C1OC(C)=O.CC[PH+](CC)CC.CC[PH+](CC)CC.[Au].[Au] (stereo not given)	inactive
Cc1c[n+](Cc2ccc3ccccc3c2)cn1Cc1ccc2ccccc2c1	inactive
O=C(N/N=C\c1cc(Br)ccc1O)c1ccncc1	inactive
COc1ccc(C2C(C#N)=C(N)OC3=C2COc2ccc(F)cc23)cc1OC (stereo not given)	inactive
Cc1cn2c(/C=C3/C(=O)Nc4ccccc43)c(-c3ccc(Cl)cc3)nc2s1	inactive
COc1ccc(-n2cc(-c3ccc(Cl)c(Cl)c3)nc2SCc2cccc(C#N)c2)cc1	inactive
CCN(CC)CCOc1ccc(/C(=C(\C)c2ccc(F)c(OC)c2)c2ccc(Cl)cc2)cc1	inactive
Cc1cc(NC(=O)c2ccc(C)c(Nc3nccc(-c4cccnc4)n3)c2)cc(-n2cnc(C)c2)c1	active
Nc1nc(Nc2ccccc2)c2ncn(Cc3cc4c(cc3Br)OCO4)c2n1	active

====

Measured GI50, listed per entry for reference.
Tested on: K-562 leukemia

Smiles string	GI50
Nc1ccncc1/C=C1/C(=O)Nc2ccccc21	33.6 µM
O=C(Nc1ccc(Cl)cc1F)c1cc(Br)ccc1O	0.678 µM
COc1ccc(CNc2c3ccccc3nc3ccccc23)cc1OC	2.34 µM
O=C(Nc1cccc(Cl)c1Cl)c1cccc(NC2=C(Cl)C(=O)N(Cc3ccccc3)C2=O)c1	5.32 µM

====

Measured GI50, listed per entry for reference.
System: UO-31 renal
Assay: NCI tumour cell line growth inhibition, 48 h

Compound	GI50
Cc1c[n+](Cc2ccc3ccccc3c2)cn1Cc1ccc2ccccc2c1	5.47 µM
OCCCCC#Cc1ccccc1C#Cc1cccc(O)c1	15.9 µM
Cc1c(C2Nc3ccccc3C2C)[nH]c2ccccc12 (stereo not given)	6.27 µM
NC1CCCC[C@H]1N.N[C@@H]1CCCC[C@@H]1N.O=C(P(=O)([O-])[O-])P(=O)([O-])[O-].[Pt+4].[Pt+4]	> 100 µM
CN(C)Cc1c[nH]c2c1C(=O)c1c(c(O)c3ccccc3c1O)C2=O	8.6 µM

====

Measured TGI, listed per entry for reference.
Test system: K-562 leukemia
Assay: NCI tumour cell line growth inhibition, 48 h
Endpoint: TGI

Molecule	Data value
CCOC(=O)c1[nH]c(COC(C)=O)c(CCCOC(C)=O)c1CCCOC(C)=O	> 100 µM
CC(=O)OCC1OC([S-])C(OC(C)=O)C(OC(C)=O)C1OC(C)=O.CC[PH+](CC)CC.CC[PH+](CC)CC.[Au].[Au] (stereo not given)	0.337 µM
COc1ccc(CCNC2=CC(=O)c3ncccc3C2=O)cc1OC	8.28 µM
C#CCn1ncc2c(SCc3ccccc3)ncnc21	> 100 µM
O=C(CN1CCCCC1)N1CCc2c([nH]c3ccccc23)C1c1cccnc1 (stereo not given)	> 100 µM
O=C(Nc1ccc(Cl)cc1F)c1cc(Br)ccc1O	> 100 µM
COc1cc2c(cc1OC)C13CCN4CC5=CCOC6CC(=O)N2C1C6C5CC43O (stereo not given)	> 100 µM
O=C1NC(=O)C(CCO)(c2ccccc2)C(=O)N1	> 100 µM
Cc1ccc(C2CC(c3ccco3)=NN2c2ccccc2)o1 (stereo not given)	> 100 µM
CN(C)Cc1c[nH]c2c1C(=O)c1c(c(O)c3ccccc3c1O)C2=O	> 100 µM
CC1=C(C(N)=O)C(c2ccncc2)C(C#N)=C2SCC(=O)N12 (stereo not given)	> 100 µM
CCN(CC)CCOc1ccc(/C(=C(\C)c2ccc(F)c(OC)c2)c2ccc(Cl)cc2)cc1	6 µM
CCN(CC)CCNCC(=O)Oc1ccc(/C=C/C(=O)CC(=O)/C=C/c2ccc(OC(=O)CNCCN(CC)CC)c(OC)c2)cc1OC	> 100 µM
CCN(CC)CCn1nc(N)c2nc3cc(Cl)ccc3nc21	> 100 µM
N#Cc1sc2nc(/C=C3/C=CC=CC3=O)c(O)n2c1N	55.9 µM
CCOC(=O)c1csc(NC(=O)C(C)N2CCCCC2)n1 (stereo not given)	> 100 µM
OCCCCC#Cc1ccccc1C#Cc1cccc(O)c1	40.4 µM
CCCCCC(C[N+]1(C)CCOCC1)C(=O)/C=C/c1ccccc1 (stereo not given)	18 µM
CC(=O)c1c(CBr)n([O-])c2ccccc2[n+]1=O	12.5 µM
COc1cc2c(cc1OC)C(O)[C@H](Br)C(C)(C)O2 (stereo not given in full)	> 100 µM
Cc1sc2nc(NCCc3c[nH]c4ccc(Cl)cc34)[nH]c(=O)c2c1C	10.7 µM
O=c1c(-c2ccccc2)c(SCCCN2CCN(c3cccc(Cl)c3)CC2)n(-c2ccccc2)c(=S)n1-c1ccccc1	> 100 µM
N#CC1Nc2ccccc2[C@@H](O)C1O (stereo not given in full)	> 100 µM
O=S(O)CCCCSSCc1ccccc1CSSCCCCS(=O)O	82.3 µM
COc1ccc2c(c1)CCc1c-2[nH]c2ccc(OC)cc12	> 100 µM
COc1cc(/C=C2\C(=O)Nc3ccc(F)cc32)cc(OC)c1OC	> 100 µM
CCOC(=O)C(N)CSC(=O)NC (stereo not given)	284 µM
Cc1[nH][nH]c(=O)c1C=Nc1ccc(-c2nc3ccccc3[nH]2)cc1	87.2 µM
CC1(C)OCC2OC3(c4nc(C#N)c(N)o4)OC(C)(C)OC3C2O1 (stereo not given)	> 100 µM
CC1=NC(=Cc2ccc(O)cc2)C(=O)N1n1c(-c2ccccc2)nc2ccccc2c1=O	> 100 µM
CC(=O)Oc1ccccc1C(=O)N=C1[Se]CCCN1C(=O)c1ccccc1OC(C)=O	12.6 µM
CC(=O)OC1CC2c3cccc4c3C(CC2N(C)C1=O)CN4C(=O)c1ccccc1 (stereo not given)	> 100 µM
Cc1cn2c(=O)c3ccccc3nc2s1	> 100 µM
CCOC(=O)CC1c2ccc(O)cc2OC(=O)C1c1ccc([N+](=O)[O-])cc1 (stereo not given)	> 100 µM
CC(=O)Oc1ccccc1-c1cc2ccccc2oc1=O	> 100 µM
CCOC(=O)CC1CCN(C(=O)c2ccccc2)C2Cc3c([nH]c4ccccc34)C12C[N+](=O)[O-] (stereo not given)	> 100 µM
O=C(O)c1ccc(NNc2cc(=O)[nH]c(=O)[nH]2)cc1	> 100 µM
CCN1CCN(c2ccc(Nc3ccnc4ccc5nn(C)nc5c34)cc2)CC1	> 100 µM
O=C(O)c1cccc(OCCO)c1	> 100 µM
CCN(CC)c1ccc2cc(-c3nnc(-c4ccccc4)o3)c(=O)oc2c1	> 100 µM
COc1ccc(-c2cc(-c3cccn3C)c(C#N)c(N)n2)cc1OC	> 100 µM
O=c1cc(-c2ccccc2)[nH]c2cc3c(cc12)OCO3	> 100 µM
Cc1cn(C2CC(N(O)Cc3ccccc3)C(CO)O2)c(=O)[nH]c1=O (stereo not given)	> 100 µM
O=C(CC(c1ccccc1)N1CCCCC1)c1ccccc1 (stereo not given)	8.6 µM
C/C(=N\Nc1cc(CN2CCCC2)c(-c2ccc(Cl)cc2)nn1)C(=O)O	> 100 µM
